Tested on: A549 NSCLC
experimental-details: NCI tumour cell line growth inhibition, 48 h
experimental-readout: TGI (µM)
Please give a number only; it is taken to be in µM.

O=C(c1ccco1)c1c(C(F)(F)F)n([O-])c2ccc(Cl)cc2[n+]1=O	2.44

Next:
Task: Which TGI value is on record for CSc1ccc(/C=C2\N=C(c3ccccc3)N(c3nc4cc(C)c(C)cc4s3)C2=O)cc1 ?
Result: 89.7

----------
Tested on: SN12C renal
experimental-details: NCI tumour cell line growth inhibition, 48 h; in the data active = GI50 below about 0.43 µM; inactive = the rest
Allowed answers: t for active, f for inactive

CCCCCCCCn1ccc2cc(NC(=O)Cn3cc(CN4CCCCC4)nn3)ccc21	f
COc1cc(/C=C2\C[C@H]3[C@@H]4CC=C5C[C@@H](O)CC[C@]5(C)[C@H]4CC[C@]3(C)[C@H]2O)ccc1OCCCn1ccnc1	f
O=S(=O)(/N=c1/scc(-c2ccccc2)n1-c1ccccc1)c1ccc(N2N=C3c4ccccc4CC3C2c2cccs2)cc1 (stereo not drawn)	f
CC(=O)N1N=C2/C(=C/c3ccc(Cl)cc3)CC(C)CC2C1c1ccc(Cl)cc1 (stereo not drawn)	f
CN1C/C=C/CCOc2cccc(c2)-c2ccnc(n2)Nc2cccc(c2)C1	t

Task: # outcome recorded in this test, key = COc1ccc2nc3cc(Cl)ccc3c(Sc3ccc([N+](=O)[O-])cc3)c2c1
Result: f

Task: Repeat for the following molecule: COc1cc(-c2cc(-c3cc(OC)c(OC)c(OC)c3)nc3nc(N)[nH]c(=O)c23)ccc1Oc1ccnc2cc(Cl)ccc12
Result: f

Task: Also check COc1ccc(C2C(C)C(=O)C(C)C(c3ccc(OC)cc3)N2N=O)cc1 (stereo not drawn)
Result: f

Task: What about this molecule? COc1cc(-c2c(C#N)c(N)nc(N3CCOCC3)c2C#N)cc(OC)c1OC
Result: f

Task: Cool, now O=C1c2cccc(NCCN=Cc3ccccc3O)c2C(=O)c2c(NCCN=Cc3ccccc3O)cccc21
Result: t

Task: Cool, now NCC1OC(OC2C(CO)OC(OC3C(O)C(N)CC(N)C3OC3OC(CO)C(O)CC3N)C2O)C(N)C(O)C1OC1OC(CO)C(O)C(O)C1O (stereo not drawn)
Result: f

Task: Next: Cn1c(/C=C/[N+](=O)[O-])cc2ccccc21
Result: f

Task: Follow-up entry: O=C(Nc1ccccc1)c1cc(S(=O)(=O)Nc2nc3ccccc3o2)c(SCc2ccccc2)cc1Cl
Result: f

Task: Would you mind doing NC(N)=N/N=C/c1ccc(-c2ccc(-c3cc(Cl)cc(Cl)c3)s2)cc1 as well?
Result: f

Task: Same again, this time with Oc1cc2ccccc2c(-c2c(O)c(O)cc3ccccc23)c1O
Result: f

Task: One more molecule: O=C(Nc1ccc(/C=C/c2ccc(NC(=O)c3cc(S(=O)(=O)O)c4cccnc4c3O)cc2S(=O)(=O)O)c(S(=O)(=O)O)c1)c1cc(S(=O)(=O)O)c2cccnc2c1O
Result: f

Task: What would you report for O=C(c1ccco1)c1c(C(F)(F)F)n([O-])c2ccc(Cl)cc2[n+]1=O ?
Result: f

Task: Moving on to the next molecule: Clc1cc(Cl)cc(N2N=C(c3cccc(Nc4ccncc4)c3)CC2c2ccc3c(c2)OCO3)c1 (stereo not drawn)
Result: f

----------
Tested on: DMS 114 small cell lung
experimental-details: NCI tumour cell line growth inhibition, 48 h
experimental-readout: TGI (µM)
Report as a plain number; the unit µM is understood.

COC(=O)C1=C(C(=O)OC)C2(C)Nc3ccccc3C2=C(c2ccccc2)C1 (stereo not given)	44.4

Continue with the next molecule.
Task: Entry NCCNCc1c2ccccc2c(CNCCN)c2ccccc12 has what TGI?
Result: 33.1

----------
Tested on: UO-31 renal
experimental-details: NCI tumour cell line growth inhibition, 48 h
experimental-readout: TGI (µM)
Write down the numeric answer in µM and omit the unit.

Some solved cases for reference:
CN1C/C=C/CCOc2cccc(c2)-c2ccnc(n2)Nc2cccc(c2)C1	0.0849
COC(=O)/C=C/C1(O)C=CC(=O)C=C1	3.51
CC(=O)OC1CC2C3CCC4C[C@@H](NC(=O)C=C(C)C)CC[C@]4(C)C3CC[C@]2(C)[C@H]1C(C)N(C)C (stereo partly specified)	2.95

Continue with the next compound.
Task: # get_value(readout='TGI', item= CCCCCC/C=C1\CCC(CN2CCOCC2)C1=O (stereo unspecified) )
Result: 27.5

----------
System: RXF-631 renal
experimental-details: NCI tumour cell line growth inhibition, 48 h
experimental-readout: TGI

Examples from the recorded data:
Cc1cc(C)nc(NS(=O)(=O)c2ccc(Nc3c4ccc(Cl)cc4nc4c(C(=O)NCCN(C)C)cccc34)cc2)n1	> 100 µM
CCNC(=O)O/N=C1\CCC2[C@@H]3CC=C4C[C@@H](OC5CCCCO5)CC[C@]4(C)C3CC[C@]12C (stereo partly specified)	22.4 µM
c1ccc2c(c1)N=C(c1cccc3ccccc13)CC(c1ccc3c(c1)OCO3)S2 (stereo unspecified)	> 100 µM

Task: Look up TGI: OCc1c[te]c(-c2ccccc2)c1
Result: > 100 µM

Task: Request: CC(C)NC(=O)CCN(C(=O)O)S(=O)(=O)c1ccc(NC(=O)c2ccccc2)cc1
Result: > 100 µM

Task: Same lookup for COc1ccc2nc3cc(Cl)ccc3c(Sc3ccc([N+](=O)[O-])cc3)c2c1 , please.
Result: > 100 µM

----------
System: SNB-19 CNS
experimental-details: NCI tumour cell line growth inhibition, 48 h
Property: GI50; scope: individual compounds

Here's what some known entries look like.
COc1ccc(-n2ccnc2-c2cc(OC)c(OC)c(OC)c2)cc1	4640 nM
CCN(CC)C1CCC(Nc2c(C(C)=O)cnc3ccc(-c4ccc(O)c(Cl)c4)cc23)CC1 (centres undefined)	1750 nM
O=S(=O)(/N=c1/scc(-c2ccccc2)n1-c1ccccc1)c1ccc(N2N=C3c4ccccc4CC3C2c2cccs2)cc1 (centres undefined)	> 100000 nM
CCCCCCCCn1ccc2cc(NC(=O)Cn3cc(CN4CCCCC4)nn3)ccc21	1820 nM
Cn1c(NCC(O)CN2CCCC2)cc(=O)n(C)c1=O (centres undefined)	> 100000 nM
Cc1ccc(C)c(/C=C2\CN(C(=O)OC(C)(C)C)C/C(=C\c3cc(C)ccc3C)C2=O)c1	2680 nM
COc1ccc(C2=NN(C(=O)c3cc(OC)c(OC)c(OC)c3)C(c3ccc(N(C)C)cc3)C2)cc1 (centres undefined)	1840 nM
CC(=O)Oc1ccc(/C(=C(\C)c2ccc(Cl)cc2)c2ccc(OCCN3CCCCC3)cc2)cc1	2260 nM

Task: Using the record for CCCCCCCCCCCCOC1C(CNC(=O)C2OC3OC(C)(C)OC3C2NC(=O)Nc2ccc(CC(=O)NC(Cc3ccccc3)C(=O)O)cc2)OC2OC(C)(C)OC21 (centres undefined) , report its GI50.
Result: > 25000 nM

Task: Same read-out for COc1cc(-c2c(C#N)c(N)nc(N3CCOCC3)c2C#N)cc(OC)c1OC ?
Result: 89900 nM

Task: Also CN1C/C=C/CCOc2cccc(c2)-c2ccnc(n2)Nc2cccc(c2)C1 , if possible.
Result: 57.4 nM

Task: Another compound: COc1ccc(Nc2cc(C)nc(NCCCNc3ccnc4cc(Cl)ccc34)n2)cc1
Result: 3480 nM

----------
Test system: RXF 393 renal
experimental-details: NCI tumour cell line growth inhibition, 48 h; in the data active = GI50 below about 0.43 µM; inactive = the rest
Answer with one of the outcomes given here: class 1 (active), class 0 (inactive)

These solved cases illustrate the format of a correct answer.
COc1cc([C@@H]2C[C@H]2c2cc(SC)n[nH]2)cc(OC)c1OC	class 1
COc1ccc(/C=C/C(=O)c2ccc(OC)c(OC)c2)cc1O	class 0

Task: Dear all, I need the recorded test outcome for CC(=O)OC1CC2C3CCC4C[C@@H](NC(=O)C=C(C)C)CC[C@]4(C)C3CC[C@]2(C)[C@H]1C(C)N(C)C (stereo not given in full) , thank you.
Result: class 0

Task: // query: Cn1c(=O)c(Oc2ccc(F)cc2F)cc2cnc(NC3CCS(=O)(=O)CC3)nc21
Result: class 0

----------
# maps each entry to its TGI
System: KM12 colon
experimental-details: NCI tumour cell line growth inhibition, 48 h

Observe how each entry below is paired with its result.
CCOP(=O)(OCC)/C(C#N)=C/c1cnc[nH]1	> 100 µM
O=c1cn[nH]c(=S)n1/N=C/c1c[nH]c2ccccc12	> 100 µM
CC(C)(C)CC(N)=O	> 100 µM

We next turn to a different compound, shown below.
Task: Tell me reported TGI for O=C(Nc1ccccc1)c1cc(S(=O)(=O)Nc2nc3ccccc3o2)c(SCc2ccccc2)cc1Cl , tested with KM12 colon.
Result: 32.6 µM

----------
System: EKVX NSCLC
experimental-details: NCI tumour cell line growth inhibition, 48 h
This listing pairs molecules with measured TGI.
Kindly provide the numeric value in µM only, without the unit symbol.

Clc1cc(Cl)cc(N2N=C(c3cccc(Nc4ccncc4)c3)CC2c2ccc3c(c2)OCO3)c1 (configuration not stated)	3.2

Task: // map Clc1ccc(OCc2nnc3n2N=C(c2ccc(Cl)cc2Cl)CS3)cc1 to recorded TGI (system: EKVX NSCLC)
Result: 52.9

Task: And the next one, COC(=O)C1=C(C(=O)OC)C2(C)Nc3ccccc3C2=C(c2ccccc2)C1 (configuration not stated) ?
Result: 70.5

Attribution: PubChem BioAssay (NCI)
